Tested on: SF-295 CNS
Assay: NCI-60 one-dose screen, 48 h (100 = growth as untreated, 0 = no growth, -100 = all killed)
Conditions: 10 µM unless noted
Procedure: Cells are grown in 96 well plates and exposed to the test compound for 48 hours. Compounds are tested at a single concentration, which is 10^-5 M for most compounds. The reported endpoint is percent growth (GI% or GIPRCNT), where numbers from 0 - 100% represent growth inhibition, and numbers from -100% - 0 represent cell death. For example, a value of 40 represents 60% growth inhibition. A value of 0 means no net growth occurred over the course of the experiment. […]
Compounds without any hit were thinned out: in the full panel of roughly 83,000, 20% have a hit.
Give label 1 when the value for growth is at least 30%. Give label 0 when it is less.

>>> df
                                   compound  label_value
0  CS(=O)(=O)N1CCN(Cc2cc3nc(-c4cccc5[nH]ncc45)nc(N4CCOCC4)c3s2)CC1 (tested in a mixture with another compound)      label 0
1  CC(=O)N1N=C(c2ccc(Nc3ccnc4cc(Cl)ccc34)cc2)CC1c1ccc(Cl)cc1 (centres undefined)      label 0
2  COc1ccc(NC(=O)c2ccc(-c3ccccc3)cc2)c(C(N)=O)c1      label 1
3  COc1ccc(C2=NN(C(N)=S)C(c3ccc4c(c3)OCO4)C2)cc1 (centres undefined)      label 0
4  Nc1nc(Nc2ccccc2SSc2ccccc2Nc2nc(N)nc(C(Cl)(Cl)Cl)n2)nc(C(Cl)(Cl)Cl)n1      label 0
5  COc1cc(/C=C2\CN(S(=O)(=O)c3ccc(C)cc3)C/C(=C\c3cc(CN4CCOCC4)c(O)c(OC)c3)C2=O)cc(CN2CCOCC2)c1O      label 0
6  O=C(N/N=C/c1ccc(Cl)cc1Cl)c1ccccc1Nc1cccc(C(F)(F)F)c1      label 0
7  Cc1cc2ccccn2c1C(=O)c1ccc(C(=O)c2ccccc2)cc1      label 1
8          Cc1sc2nc(N3CCCCC3)[nH]c(=O)c2c1C      label 1

----------
tested on: DU-145 prostate; experiment: NCI-60 one-dose screen, 48 h (100 = growth as untreated, 0 = no growth, -100 = all killed); settings: 10 µM unless noted
About 83,000 compounds went through this panel and 20% of them were active in at least one assay; those are over-represented in the sample as a whole.
Listing of entries alongside the reported growth.
Endpoint name: growth (%)

Compound	Study system	Measure unit	Readout number
COc1ccc2c3c(ccc2c1)C(=O)/C(=C\O)CC3	DU-145 prostate	%	111
O=C1/C(=C/c2ccccc2Cl)CCc2ccccc21	DU-145 prostate	%	108
CO[C@H]1/C=C/O[C@@]2(C)Oc3c(C)c(O)c4c(O)c(c(/C=N/N5C(C)CN(Cc6ccc(C#N)cc6)CC5C)c(O)c4c3C2=O)NC(=O)/C(C)=C\C=C\[C@H](C)[C@H](O)[C@@H](C)[C@@H](O)[C@@H](C)[C@H](OC(C)=O)[C@@H]1C (stereo partly drawn)	DU-145 prostate	%	45.3
CCN(CC)c1ccc(/C=C/C(=O)c2cccc(NS(C)(=O)=O)c2)cc1	DU-145 prostate	%	49.6
CC(=O)OCC(=O)[C@@]1(O)CC[C@H]2[C@@H]3CCC4=CC(=O)CC[C@]4(C)[C@@]3(F)[C@@H](O)C[C@@]21C	DU-145 prostate	%	96
NS(=O)(=O)c1ccc(-n2ncc3c(SCc4ccccc4)ncnc32)cc1	DU-145 prostate	%	78.1
CCOC(=O)C1=CCC(n2cc(C)c(=O)[nH]c2=O)O1 (stereo not drawn)	DU-145 prostate	%	119
CCSCC1CC(O)(c2ccccc2)C(c2ccccc2)C(c2ccc(Cl)cc2)O1 (stereo not drawn)	DU-145 prostate	%	18.2

----------
Listing of entries alongside the reported growth.
test system: RXF 393 renal; assay: NCI-60 one-dose screen, 48 h (100 = growth as untreated, 0 = no growth, -100 = all killed); conditions: 10 µM unless noted
This is part of a sample that, as a whole, favours compounds with a hit. Of some 83,000 tested, about 20% had one in any assay. The source made the active and inactive calls. Rule for the calls: active = growth percent below 10; inactive = the rest.
Endpoint name: growth

Compound	Result
CN(C)CCC(=O)Nc1ccc(-n2cc(-c3cccc(NC(=S)Nc4cccc(-c5cn(-c6ccc(NC(=O)CCN(C)C)cc6)nn5)c4)c3)nn2)cc1	135% (inactive)
Cc1nn2c(/C=C3/C(=O)Nc4cc(Cl)ccc43)c(-c3ccccc3)nc2s1	-18% (active)
CSc1nc2nc3c(c(-c4ccc(C)cc4)c2c(=O)[nH]1)CN(C)C/C3=C\c1ccc(C)cc1	109% (inactive)
CCOC(=O)CNC(=O)C1(NC(=O)CNC(=O)OCc2ccccc2)CCCC1	135% (inactive)
COC(=O)[C@H](Cc1cn(C)cn1)NC(=O)[C@H](C)NC(=O)Nc1cc(C(F)(F)F)cc(C(F)(F)F)c1	-83.1% [100 µM] (active)
Oc1c(Cl)cc(Oc2cc(Cl)c(O)c(CN3CCOCC3)c2)cc1CN1CCOCC1	104% (inactive)
c1ccc(COc2ccc(Nc3ncnc4c3cnn4-c3ccccc3)cc2)cc1	102% (inactive)
O=C1/C(=C/c2ccc(F)cc2)Cc2ccccc21	99.6% (inactive)
Cc1c2oc3c(C)ccc(C(=O)OC(C)C4NC(=O)C(C(C)C)N(C)C(=O)CN(C)C(=O)C5CCCN5C(=O)C(C(C)C)NC4=O)c3nc-2c(C(=O)OC(C)C2NC(=O)C(C(C)C)N(C)C(=O)CN(C)C(=O)C3CCCN3C(=O)C(C(C)C)NC2=O)c(N)c1=O (stereo not drawn)	-78.5% (active)
Oc1ccc(/C=N/Nc2nc3ccccc3s2)c(O)c1	53.9% (inactive)
Cc1ccc(/C=C(/C#N)n2nnc3ncccc32)cc1	-28.4% (active)
CN(C)CCCN=c1cc2c(=O)n(CCCN(C)C)c(=O)c3c(NCCCN(C)C)cc4c(O)n(CCCN(C)C)c(=O)c1c4c3-2	-68.3% (active)
Cc1n(Cc2ccc3ccccc3c2)c2ccccc2[n+]1Cc1ccc2ccccc2c1	-88% (active)
Cc1ccc2nc(-c3ccc(N(C)C)c(Br)c3)cn2c1	62.8% (inactive)
COc1ccc2nc(-c3ccc(Cl)cc3)cc(-c3nnc(SCC(=O)Nc4ccc(C(C)=O)cc4)n3-c3ccccc3)c2c1	102% (inactive)
CC1CN(/N=C/c2ccc([N+](=O)[O-])o2)C(=N)O1 (stereo not drawn)	102% (inactive)
Cn1cnc([N+](=O)[O-])c1Sc1nc(N)nc2nc[nH]c12	44.8% (inactive)
O=C(NN1C(=O)c2cc(C(=O)O)c(C(=O)O)cc2C1=O)c1ccncc1	127% (inactive)

----------
Listing of entries alongside the reported growth.
Test system: SW-620 colon
Test: NCI-60 one-dose screen, 48 h (100 = growth as untreated, 0 = no growth, -100 = all killed)
Conditions: 10 µM unless noted
Experimental: Growth inhibition of the SW-620 human tumor cell line is measured as a screen for anti-cancer activity. Cells are grown in 96 well plates and exposed to the test compound for 48 hours. Compounds are tested at a single concentration, which is 10^-5 M for most compounds. The reported endpoint is percent growth (GI% or GIPRCNT), where numbers from 0 - 100% represent growth inhibition, and numbers from -100% - 0 represent cell death. For example, a value of 40 represents 60% growth inhibition. […]
This is part of a sample that, as a whole, favours compounds with a hit. Of some 83,000 tested, about 20% had one in any assay. Activity calls are given as the source filed them. Rule for the calls: active = growth percent below 10; inactive = the rest.
Endpoint name: growth

>>> print(df.to_string())
                                    compound                    result
 0  CCn1cnc(C[C@H](NC(=O)[C@H](CCCCNC(=O)Nc2cc(C(F)(F)F)cc(C(F)(F)F)c2)NC(=O)Nc2cc(C(F)(F)F)cc(C(F)(F)F)c2)C(=O)OC)c1  -40.9% [100 µM] (active)
 1  Cc1ccc2c(c1)C(=O)/C(=C\Nc1ccc(C(N)=O)cc1)C(O)O2 (centres undefined)          93.2% (inactive)
 2  O=c1[nH]c(SCc2ccccc2)nc2nc(Nc3ccc(NC(=S)Nc4ccccc4)cc3)nc(-c3ccc(O)cc3O)c12          96.8% (inactive)
 3  [N-]=[N+]=NCc1cccc(/C(O)=C/C(=O)C(=O)O)c1          94.9% (inactive)
 4  COc1ccc2[nH]c(=O)c(CNc3ccc(Nc4nccc(-c5ccc(Cl)cc5)n4)cc3)cc2c1           105% (inactive)
 5  C[C@H](C(=O)N[C@@H](Cc1ccc(-c2ccccc2)cc1)C(=O)NC1CC(C)(C)N(C)C(C)(C)C1)c1ccc(-c2ccccc2)c(F)c1           -76.8% (active)
 6  COc1ccc(-c2cc(-c3cccnc3)nc(S(=O)(=O)CC(=O)Nc3ccc(C)cc3)c2C#N)cc1OC          98.3% (inactive)
 7  O=C(COc1ccc(/C=C2\Oc3ccc4ccccc4c3C2=O)cc1)c1ccc([N+](=O)[O-])cc1          98.5% (inactive)
 8  COc1ccccc1-n1c(-c2ccc(O)cc2C)cn2c3c(=O)[nH]c(=O)n(C)c3nc12          94.7% (inactive)
 9  C/C(=C\CCc1ccoc1)CC/C=C(\C)CCCNc1ccc(F)cc1          90.6% (inactive)
10  CC(=O)N1N=C(c2ccc3c(c2)OCO3)CC1c1c(C)nn(-c2ccccc2)c1N(C)Cc1ccccc1 (centres undefined)          85.9% (inactive)
11  O=C(Nc1nc2ccc(OC(F)(F)F)cc2s1)c1ccc(F)cc1          13.3% (inactive)
12  CCNCCCn1c2c(c3ccc(F)cc3c1=O)C(=O)c1cc(OC)cnc1-2           -16.1% (active)
13  CC(C)=CCNc1ncnc2c1ncn2C1OC(COP(=O)(O)O)C(O)C1O (centres undefined)          37.6% (inactive)
14  O=C1c2cccc3c([N+](=O)[O-])ccc(c23)C(=O)N1CCCCl  -44.4% [100 µM] (active)
15  Oc1c(Cl)cc(Oc2cc(Cl)c(O)c(CN3CCOCC3)c2)cc1CN1CCOCC1          98.3% (inactive)
16  COc1cc(/C=C/c2cc(/C=C/c3ccc(O)c(OC)c3)n(C(=O)c3ccc(Cl)cc3)n2)ccc1O          16.4% (inactive)
17        O=C1/C(=C/c2cccc(Cl)c2)CCc2ccccc21          56.4% (inactive)
18  CCN(CC)c1ccc(N=C2C=CC(=O)C=C2NC(C)=O)cc1            89% (inactive)

Provenance of the data: PubChem BioAssay (NCI)
